For each entry below, report its Ki value.
# STUDY TARGET: T1, human recombinant melanocortin-4 receptor (human, UniProt P32245 1-332)
# T1 construct: whole, on cells; cAMP assays used the whole cells; also called hMC4-R; MC4-R
# T1 sequence (P32245 whole entry): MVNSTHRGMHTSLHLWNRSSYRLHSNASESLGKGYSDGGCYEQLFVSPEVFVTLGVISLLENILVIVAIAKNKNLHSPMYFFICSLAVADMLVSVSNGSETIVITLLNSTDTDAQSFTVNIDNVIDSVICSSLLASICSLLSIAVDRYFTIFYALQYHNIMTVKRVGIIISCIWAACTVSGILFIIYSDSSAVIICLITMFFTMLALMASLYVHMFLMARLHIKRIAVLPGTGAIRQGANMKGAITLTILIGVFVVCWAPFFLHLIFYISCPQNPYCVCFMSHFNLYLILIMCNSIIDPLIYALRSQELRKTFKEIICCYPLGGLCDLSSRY
# PROTOCOL TEXT: competitive inhibition of [I125]-NDP-α-MSH, hMC4-R HEK-293 membranes
Bridge positions count the residues as written; N and C are the ends. Square brackets hold non-standard residues; d marks the D form. Orn = NCCC[C@H](N)C(=O)O
Please reply with the bare figure in nM and do not write the unit itself.

# lookup: Ki of RKXFRWD (HELM PEPTIDE1{[ac].R.K.[Dab].[dF].R.W.D}$PEPTIDE1,PEPTIDE1,3:R3-8:R3$$$V2.0; SMILES CC(=O)N[C@@H](CCCNC(=N)N)C(=O)N[C@H]1CCCCNC(=O)C[C@@H](C(=O)O)NC(=O)[C@H](Cc2c[nH]c3ccccc23)NC(=O)[C@H](CCCNC(=N)N)NC(=O)[C@@H](Cc2ccccc2)NC(=O)[C@H](CCN)NC1=O, also called peptide No. 131) [Ac-Arg-cyclo(Lys-Dab-D-Phe-Arg-Trp-Asp)-OH]
35

Give the measured Ki of Ac-RDK[dF]RWK-NH2 (lactam 2-7, also called peptide No. 2) [Ac-Arg-cyclo(Asp-Lys-D-Phe-Arg-Trp-Lys)-NH2] .
30

Quick one: Ki for H-R[Orn]H[dF]RWE-NH2 (lactam 2-7, also called peptide No. 99) [Arg-cyclo(Orn-His-D-Phe-Arg-Trp-Glu)-NH2] ?
6
